The reader will find reported IC50 values listed item by item below.
# Assayed System: LFA-1 binding to immobilized ICAM-1 (Homo sapiens, UniProt P05107+P20701)
# Construct: made in house; host or cells: transfected 293 cells (LFA-1)
# Sequence (P20701 26-1170, one chain of several): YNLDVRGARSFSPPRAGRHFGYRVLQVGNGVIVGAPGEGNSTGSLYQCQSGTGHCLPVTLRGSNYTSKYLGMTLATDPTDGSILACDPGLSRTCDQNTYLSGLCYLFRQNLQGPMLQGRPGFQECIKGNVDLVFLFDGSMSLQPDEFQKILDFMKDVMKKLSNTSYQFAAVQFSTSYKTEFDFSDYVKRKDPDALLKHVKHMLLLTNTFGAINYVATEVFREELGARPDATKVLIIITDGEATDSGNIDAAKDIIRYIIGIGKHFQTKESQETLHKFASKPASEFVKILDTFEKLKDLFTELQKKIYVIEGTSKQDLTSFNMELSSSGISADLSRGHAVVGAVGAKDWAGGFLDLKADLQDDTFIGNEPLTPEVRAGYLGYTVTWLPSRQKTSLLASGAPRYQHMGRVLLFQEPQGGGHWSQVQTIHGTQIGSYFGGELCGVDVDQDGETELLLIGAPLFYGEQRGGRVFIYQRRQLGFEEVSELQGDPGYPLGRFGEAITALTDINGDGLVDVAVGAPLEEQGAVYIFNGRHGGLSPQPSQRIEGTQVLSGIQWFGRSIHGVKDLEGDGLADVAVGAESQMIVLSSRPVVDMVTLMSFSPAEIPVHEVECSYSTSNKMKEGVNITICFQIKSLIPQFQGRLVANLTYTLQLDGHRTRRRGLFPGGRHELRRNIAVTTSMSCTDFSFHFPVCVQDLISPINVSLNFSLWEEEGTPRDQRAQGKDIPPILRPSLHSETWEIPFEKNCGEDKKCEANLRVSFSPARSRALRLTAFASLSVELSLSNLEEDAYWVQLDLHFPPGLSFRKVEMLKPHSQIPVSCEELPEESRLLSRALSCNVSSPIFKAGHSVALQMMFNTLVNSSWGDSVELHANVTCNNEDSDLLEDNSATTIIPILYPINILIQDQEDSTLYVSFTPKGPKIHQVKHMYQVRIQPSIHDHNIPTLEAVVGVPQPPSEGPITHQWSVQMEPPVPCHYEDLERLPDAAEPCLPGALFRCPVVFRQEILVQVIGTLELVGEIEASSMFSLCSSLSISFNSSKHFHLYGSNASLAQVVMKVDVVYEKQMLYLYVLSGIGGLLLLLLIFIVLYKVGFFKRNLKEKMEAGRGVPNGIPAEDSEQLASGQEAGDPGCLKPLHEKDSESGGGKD
# Assay Details: LFA-1/ICAM-1 protein-protein assay (solid-phase ELISA)
# Test Settings: read-out: LFA-1/ICAM-1 Protein-Protein Assay IC50
Express it in nM; write the number only.

Exercise: LFA-1 binding to immobilized ICAM-1 (Homo sapiens, UniProt P05107+P20701) / IC50 / N[C@@H](Cc1ccc(OCc2c(Cl)cccc2Cl)cc1)C(=O)NC[C@H](NC(=O)c1ccc(C(=O)NCc2cccc(O)c2)cc1Cl)C(=O)O : value?
Solution: 7.4

Exercise: Please do the same for O=C(NCc1cccc(O)c1)c1ccc(C(=O)N[C@@H](CNC(=O)c2ccc(Cl)s2)C(=O)O)c(Cl)c1 as well.
Solution: 1.2

Exercise: Please do the same for N[C@@H](Cc1ccccc1)C(=O)NC[C@H](NC(=O)c1ccc(C(=O)NCc2cccc(O)c2)cc1Cl)C(=O)O as well.
Solution: 7.4

Exercise: Please do the same for O=C(NCc1cccc(O)c1)c1ccc(C(=O)N[C@@H](CNC(=O)c2cnnc3ccccc23)C(=O)O)c(Cl)c1 as well.
Solution: 1.3

----------
# Assayed System: ICAM-1 binding to immobilized Mac-1 (Homo sapiens, UniProt P05107+P11215)
# Construct: made in house; host or cells: transfected 293 cells (Mac-1)
# Sequence (P05107 23-769, other chains not shown): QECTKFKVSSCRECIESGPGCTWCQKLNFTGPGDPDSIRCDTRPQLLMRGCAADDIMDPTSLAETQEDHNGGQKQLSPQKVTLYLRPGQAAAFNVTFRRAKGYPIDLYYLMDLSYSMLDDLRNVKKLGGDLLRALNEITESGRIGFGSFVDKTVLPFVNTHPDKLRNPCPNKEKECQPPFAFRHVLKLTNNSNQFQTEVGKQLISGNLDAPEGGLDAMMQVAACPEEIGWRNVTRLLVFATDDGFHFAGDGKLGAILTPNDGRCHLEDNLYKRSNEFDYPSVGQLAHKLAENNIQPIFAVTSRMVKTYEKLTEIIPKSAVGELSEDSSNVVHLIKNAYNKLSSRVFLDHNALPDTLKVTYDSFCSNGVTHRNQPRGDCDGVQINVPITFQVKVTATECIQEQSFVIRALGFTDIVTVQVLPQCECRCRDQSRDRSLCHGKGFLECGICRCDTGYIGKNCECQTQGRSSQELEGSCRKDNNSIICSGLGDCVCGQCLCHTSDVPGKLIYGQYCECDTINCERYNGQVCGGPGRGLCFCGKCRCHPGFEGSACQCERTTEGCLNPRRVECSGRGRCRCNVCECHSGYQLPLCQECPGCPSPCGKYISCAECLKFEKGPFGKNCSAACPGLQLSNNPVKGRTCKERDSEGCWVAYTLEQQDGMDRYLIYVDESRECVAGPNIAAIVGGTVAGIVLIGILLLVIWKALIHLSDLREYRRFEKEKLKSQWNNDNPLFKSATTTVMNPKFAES
# Assay Details: Mac-1/ICAM-1 screening assay (solid-phase ELISA)
# Test Settings: read-out: Mac-1/ICAM-1 Protein-Protein Assay IC50
Measured Parameter: IC50 (µM)
Express it in µM; write the number only.

| Compound | IC50 [µM] |
| --- | --- |
| CC(C)(C)C(=O)NC[C@H](NC(=O)c1ccc(C(=O)NCc2cccc(O)c2)cc1Cl)C(=O)O | 0.048 |

Exercise: Item under review: O=C(/C=C/c1cccs1)NC[C@H](NC(=O)c1ccc(C(=O)NCc2cccc(O)c2)cc1Cl)C(=O)O . Reported IC50?
Solution: 0.018

Exercise: Please do the same for O=C(NCc1cccc(O)c1)c1ccc(C(=O)N[C@@H](CNC(=O)c2ccc(Cl)cc2)C(=O)O)c(Cl)c1 as well.
Solution: 0.035

Exercise: Please do the same for NC(=O)C[C@H](N)C(=O)NC[C@H](NC(=O)c1ccc(C(=O)NCc2cccc(O)c2)cc1Cl)C(=O)O as well.
Solution: 0.033

----------
# Assayed System: ICAM-1 binding to immobilized Mac-1 (Homo sapiens, UniProt P05107+P11215)
# Construct: made in house; host or cells: transfected 293 cells (Mac-1)
# Assay Details: Mac-1/ICAM-1 screening assay (solid-phase ELISA)
# Test Settings: read-out: Mac-1/ICAM-1 Protein-Protein Assay IC50
Measured Parameter: IC50 (nM)
Express it in nM; write the number only.

Recorded results for 3 compounds are shown here.
| Query Smiles | IC50 [nM] |
| --- | --- |
| C[C@@H](NC(=O)c1ccc(C(=O)N[C@@H](CNC(=O)c2cccs2)C(=O)O)c(Br)c1)c1cccc2ccccc12 | 68 |
| O=C(NCc1cccc(O)c1)c1ccc(C(=O)N[C@@H](CNC(=O)c2cc3ccccc3o2)C(=O)O)c(Cl)c1 | 91 |
| O=C(NCc1cccc(O)c1)c1ccc(C(=O)N[C@@H](CNC(=O)c2cccc([N+](=O)[O-])c2)C(=O)O)c(Cl)c1 | 9.6 |

Exercise: Item under review: O=C(Cc1cccs1)NC[C@H](NC(=O)c1ccc(C(=O)NCc2cccc(O)c2)cc1Cl)C(=O)O . Reported IC50?
Solution: 60

Exercise: Please do the same for N#Cc1cccc(C(=O)NC[C@H](NC(=O)c2ccc(C(=O)NCc3cccc(O)c3)cc2Cl)C(=O)O)c1 as well.
Solution: 11

Exercise: Please do the same for O=C(NCc1cccc2[nH]cnc12)c1ccc(C(=O)N[C@@H](CNC(=O)c2cccs2)C(=O)O)c(Cl)c1 as well.
Solution: 51

Exercise: Please do the same for O=C(NCc1cccc2[nH]ccc12)c1ccc(C(=O)N[C@@H](CNC(=O)c2ccoc2)C(=O)O)c(Cl)c1 as well.
Solution: 24

Exercise: Please do the same for O=C(/C=C/c1cccnc1)NC[C@H](NC(=O)c1ccc(C(=O)NCc2cccc(O)c2)cc1Cl)C(=O)O as well.
Solution: 43

Exercise: Please do the same for O=C(NCc1cccc(O)c1)c1ccc(C(=O)N[C@@H](CNC(=O)c2ccccc2Br)C(=O)O)c(Cl)c1 as well.
Solution: 114

Exercise: Please do the same for O=C(NCc1cccc(O)c1)c1ccc(C(=O)N[C@@H](CNC(=O)c2cc(=O)[nH]c(=O)[nH]2)C(=O)O)c(Cl)c1 as well.
Solution: 36

Exercise: Please do the same for Nc1cccc(C(=O)NC[C@H](NC(=O)c2ccc(C(=O)NCc3cccc(O)c3)cc2Cl)C(=O)O)c1 as well.
Solution: 23
